# targetOfAssay: UniProt P34972
# Sequence (P34972 whole entry): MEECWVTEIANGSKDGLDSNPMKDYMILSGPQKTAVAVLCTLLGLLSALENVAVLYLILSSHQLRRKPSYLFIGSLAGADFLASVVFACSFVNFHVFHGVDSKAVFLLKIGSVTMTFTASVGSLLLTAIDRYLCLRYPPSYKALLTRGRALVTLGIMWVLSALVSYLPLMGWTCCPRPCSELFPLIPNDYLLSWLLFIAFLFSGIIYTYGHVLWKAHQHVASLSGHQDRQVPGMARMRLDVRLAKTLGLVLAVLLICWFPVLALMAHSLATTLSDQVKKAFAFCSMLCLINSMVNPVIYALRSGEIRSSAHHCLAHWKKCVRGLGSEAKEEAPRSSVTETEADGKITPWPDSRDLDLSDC
# assayName: Agonist activity at human CB2-receptor expressed in CHO-K1 cells coexpressing G-alpha16 assessed as maximum efficacy by Fluo-4-AM dye based calcium mobilization assay relative to CP55940
# Assay type: functional, cell-based
readoutName: Emax (%)
Write it as a number; the unit % goes unstated.

Consider the following illustrative entries.
CCCCCn1c(C(=O)NC23CC4CC(CC(C4)C2)C3)nc2ccccc21	62.2
CCCCCn1c(C(=O)NC23CC4CC(CC(C4)C2)C3)cc2cccnc21	46.2
O=C(NC12CC3CC(CC(C3)C1)C2)c1nn(CCN2CCOCC2)c2ccccc12	85.3
CCCCCn1nc(C(=O)NC23CC4CC(CC(C4)C2)C3)c2ccccc21	58.5
O=C(NC12CC3CC(CC(C3)C1)C2)c1n[nH]c2ccccc12	73.9
O=C(NC12CC3CC(CC(C3)C1)C2)c1cc2cccnc2[nH]1	40.7
O=C(NC12CC3CC(CC(C3)C1)C2)c1nc2ccccc2[nH]1	85.3

Proceeding to the next molecule to report its Emax.
-- ask Quote Emax reported for CCCCCn1c(C(=O)NC23CC4CC(CC(C4)C2)C3)cc2ncccc21 please.
-- reply 50
